experiment: chemical genetic growth profiling, strain panel (AID 1159580);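 also: tested at 20 µM; growth read once vehicle control cultures reached saturation at 30 °C; 1 = growth at the plate median or of vehicle wells; lower values mean less growth of the strain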; settings: S. cerevisiae deletion strains, growth OD, locus YLR039C, strain RIC1, stronger effect = lower value
Screen size: about 5,500 compounds; about 2,000 (36%) were called active. Not shown: some 18% with an inconclusive outcome. The list shows a part of the results.
Experimental endpoint: normalized growth
Lab note: write the figure by itself, no unit.

Note to self: normalized growth recorded for `CSc1nc(NC(C)C)nc(NC(C)C)n1` was 0.987

Record `C[C@]12CCC(=O)C=C1CCc1ccc(O)cc12` , field normalized growth: 1.06

Consider `COc1cccc2c1CCC1=CC(=O)CC[C@@]12C` . Its measured normalized growth is 1.1

So, `COc1ccc(-c2cc(=O)c3c(O)cc(O)cc3o2)cc1O` ? Its normalized growth was 0.928

Value of measured normalized growth for the entry `COc1nc(NC(C)C)nc(NC(C)C)n1` : 1.02

Summary for this molecule, `CC(C)Nc1nc(Cl)nc(NC(C)C)n1` : normalized growth is 0.995

The reported normalized growth of the molecule `COc1cc(C)c2c(=O)c3c(O)cc(OC)cc3oc2c1` was 1.04

The molecule identified as CC1(C)S[C@@H]2[C@H](NC(=O)C(C(=O)O)c3ccccc3)C(=O)N2[C@H]1C(=O)O (stereo partly specified) registered its normalized growth at 0.989

Reported normalized growth of `COc1cc(C)c2c(=O)c3c(O)cc(O)cc3oc2c1` : 0.865

// field: normalized growth; key: `COc1cc(O)c2c(=O)cc(-c3ccc(OC)c(-c4c(O)cc(O)c5c(=O)cc(-c6ccc(O)cc6)oc45)c3)oc2c1` ; value = 0.95

Reported normalized growth of `COc1ccc(-c2cc(=O)c3c(O)cc(O)c(-c4cc(-c5cc(=O)c6c(O)cc(O)cc6o5)ccc4OC)c3o2)cc1` : 1.16

----------
Exercise: for every item that follows, state its recorded normalized growth.
test: chemical genetic growth profiling, strain panel (AID 1159580);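 also: tested at 20 µM; growth read once vehicle control cultures reached saturation at 30 °C; 1 = growth at the plate median or of vehicle wells; lower values mean less growth of the strain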; details: S. cerevisiae deletion strains, growth OD, locus YIL147C, strain SLN1, stronger effect = lower value
Out of some 5,500 compounds screened, about 2,000 (36%) were called active. Another 18% or so got no clear call; they are omitted. Some of the results follow.
# respond with the number and nothing more

Entry `O=S(=O)(c1cc(Cl)ccc1Cl)N1CCc2ccccc2C1` , normalized growth reported as 0.975

Notebook: `O=S(=O)(Nc1ccccc1Sc1c(Cl)cncc1Cl)c1ccc(Cl)cc1` , normalized growth read as 0.988

Short answer for `O=C(Nc1cc2ccccc2s1)N1CCN(Cc2c(F)cccc2Cl)CC1` : normalized growth was 0.982

----------
For each record, write down the corresponding normalized growth.
assay: chemical genetic growth profiling, strain panel (AID 1159580);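 also: tested at 20 µM; growth read once vehicle control cultures reached saturation at 30 °C; 1 = growth at the plate median or of vehicle wells; lower values mean less growth of the strain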; details: S. cerevisiae deletion strains, growth OD, locus YAL026C, strain drs2, stronger effect = lower value
The campaign covered roughly 5,500 compounds. About 2,000 (36%) were called active. Not shown: some 18% with an inconclusive outcome. This is one part of the list.

Per the record, O=c1c2cc(O)c(O)cc2oc2cc(O)c(C3O[C@H](CO)[C@H](O)[C@@H](O)[C@H]3O)c(O)c12 (stereo not given in full) has normalized growth of 1.02 (inactive)

For this compound ( `C=CCSCC=C` ), measured normalized growth is 0.971 (inactive)

The compound `N#Cc1c(Cl)cccc1Cl` showed normalized growth equal to 0.988 (inactive)

// CC1(C)C(=O)CC[C@@]2(C)C1C[C@@H](O)[C@@]1(C)C3=CC(=O)O[C@@H](c4ccoc4)[C@]3(C)CCC21 (stereo not given in full) : normalized growth value = 1.02 (inactive)

Lookup result for `CN(C)CC[C@H](c1ccc(Cl)cc1)c1ccccn1` ; measured normalized growth: 1.01 (inactive)

// sample C[C@@H]1CC[C@@]23CCC4(C)[C@@](C=CC5[C@@]6(C)CC[C@H](O)C(C)(C)C6CC[C@]54C)(OC2=O)C3[C@H]1C (stereo not given in full) , its normalized growth was 1.01 (inactive)

According to the records, this compound CCCCCC(O)C1C(=O)OC(C)C(O)/C=C/C=C/C=C/C=C/C=C(\C)C(O)CC(O)CC(O)CC(O)CC(O)CC(O)CC1O (stereo not given) displays normalized growth of 0.994 (inactive)

// normalized growth value for COC1=CC(C)[C@@H]2C[C@H]3OC(=O)C[C@H]4C(C)=C(OC)C(=O)C([C@@]34C)[C@@]2(C)C1=O (stereo not given in full) : 0.979 (inactive)

Recorded result, `O=C(Oc1cccc2cccnc12)c1ccccc1` , normalized growth: 0.921 (inactive)

The reported normalized growth of the compound C[C@H]1[C@H](C)CC[C@]2(C(=O)O)CC[C@]3(C)C(=CCC4[C@@]5(C)C[C@@H](O)[C@H](O)[C@@](C)(CO)C5[C@H](O)C[C@]43C)[C@H]12 (stereo not given in full) was 0.963 (inactive)

Documented normalized growth of `COc1ccc(-c2cc(=O)c3c(O)cc(O)c(-c4cc(-c5cc(=O)c6c(O)cc(O)cc6o5)ccc4OC)c3o2)cc1` : 1.01 (inactive)

Form field normalized growth, entry `COc1cc(O)c2c(=O)cc(-c3ccc(OC)c(-c4c(O)cc(O)c5c(=O)cc(-c6ccc(O)cc6)oc45)c3)oc2c1` : 0.982 (inactive)

// recorded normalized growth for `O=c1c(O)cc([C@H]2Oc3cc(O)cc(O)c3C[C@H]2O)cc2c([C@H]3Oc4cc(O)cc(O)c4C[C@H]3O)cc(O)c(O)c12` : 1.04 (inactive)

// normalized growth lookup, compound = NCC(O)CC(=O)O (stereo not given) , result: 0.967 (inactive)

// normalized growth value for `COC(=O)N/N=C\c1c[n+]([O-])c2ccccc2[n+]1[O-]` : 0.999 (inactive)

Briefly, normalized growth measured for COC(=O)CC1C(C)(C)C(OC(C)=O)[C@@H]2[C@@H](OC(C)=O)[C@]34O[C@@]2(O)[C@]1(C)C3CC[C@]1(C)C4=CC(=O)O[C@H]1c1ccoc1 (stereo not given in full) : 0.991 (inactive)

Per the record, `Oc1ccc([C@H]2Oc3cc(O)cc(O)c3C[C@H]2O)cc1` has normalized growth of 0.991 (inactive)

For record `C=CCSSCC=C` the listed normalized growth is 1.04 (inactive)

Kindly note the recorded normalized growth for C[C@@H]1CCC2[C@](C)(CO)[C@@H](O)CC[C@]2(C)[C@@]12CC[C@@](CO)(CCO)O2 (stereo not given in full) , which is 0.985 (inactive)

normalized growth measured on COC(=O)C(N)CS (stereo not given) = 0.967 (inactive)
